tested on: CAKI-1 renal; experiment: NCI-60 one-dose screen, 48 h; conditions: 10 µM unless noted
About 83,000 compounds went through this panel and 20% of them were active in at least one assay; those are over-represented in the sample as a whole. Calls of active or inactive are those of the source. The calls were made as follows: active = growth percent below 10; inactive = the rest.
Respond only with the outcome that fits, drawn from active, inactive

Compound	Class assignment
COc1cc2c(cc1-c1c(C)noc1C)ncc1nc(C3CCC(F)(F)CC3)n(C3CCC(OC(F)F)CC3)c12 (centres undefined)	inactive
CN(Cc1cnc2nc(N)nc(N)c2n1)c1ccc(C(=O)N[C@@H](CCc2nn[nH]n2)c2nn[nH]n2)cc1	inactive
CCOC(=O)c1c2c(n3ccc(NC(=O)OC(C)(C)C)cc13)C(=O)c1ncccc1C2=O	active

Problem: Hi, do you know how "N#Cc1c(N)nn(C(=O)c2ccc(NC(=O)c3ccccn3)cc2)c1-c1ccc(Cl)cc1" came out in this test?
Solution: inactive

* * *

system: HCC-2998 colon; assay: NCI-60 one-dose screen, 48 h (100 = growth as untreated, 0 = no growth, -100 = all killed); details: 10 µM unless noted
About 83,000 compounds went through this panel and 20% of them were active in at least one assay; those are over-represented in the sample as a whole.
Output 1 (yes) for growth not less than 40%; output 0 (no) otherwise.

Sample answers from the record:
Compound	Tested on	Class assignment
N=C1C(c2nc(-c3ccc(Br)cc3)cs2)=C(O)CN1Cc1cccnc1	HCC-2998 colon	1 (yes)
Cc1nc2c(c(N3CCCc4ccccc43)n1)CCC2	HCC-2998 colon	0 (no)
COCN1CCC2N(COC)CCC3N(COC)CCC1N23 (stereo not given)	HCC-2998 colon	1 (yes)

Problem: hey, is growth for this one >= 40%? "Cc1ccc(N(C(=O)CCc2c[nH]c3ccccc23)[C@H](C(=O)Nc2ccc(Cl)cc2)c2cccc([N+](=O)[O-])c2)cc1"
Solution: 1 (yes)

* * *

test system: RPMI-8226 leukemia; test: NCI-60 one-dose screen, 48 h (100 = growth as untreated, 0 = no growth, -100 = all killed); details: 10 µM unless noted
The panel holds about 83,000 compounds, 20% with a hit somewhere; the sample as a whole holds those more often.
Below is a list of entries, each paired with its recorded growth value.
Kindly provide the numeric value in % only, without the unit symbol.

Compound	Tested on	Reading unit	growth
O=C(c1ccccc1)N1N=C(c2ccccc2)CC1c1nnc2n(Cc3ccccc3)c(=O)c3c4c(sc3n12)CCCC4 (centres undefined)	RPMI-8226 leukemia	%	91.6
COc1ccc(NC(=O)CSc2nc(C)c(C(C)=O)n2-c2ccc(Cl)cc2)cc1	RPMI-8226 leukemia	%	97.3
Cc1ccc2nc(C)c(-c3nnc(SCc4ccc(C#N)cc4)o3)n2c1	RPMI-8226 leukemia	%	93.6
c1cc2ccc3cc2cc1CNCCOCCNCc1ccc2ccc(cc2c1)CNCCOCCNC3	RPMI-8226 leukemia	%	0.51
Cc1ccc2nc(NC(=O)CSc3nc(Nc4ccc([N+](=O)[O-])cc4)c(C#N)c(-c4ccccc4)n3)sc2c1	RPMI-8226 leukemia	%	80

Problem: Query: growth; subject: "COc1ccc(N=Nc2ccc(O)c(=O)cc2)cc1"
Solution: 9.86

Problem: Query: growth; subject: "COc1ccc(-c2cc(-c3ccc(Nc4nc(Nc5ccc(Cl)cc5)nc(Nc5ccc(Cl)cc5)n4)cc3)nc(N)c2C#N)cc1"
Solution: -23.5

Problem: Query: growth; subject: "O=C1/C(=C2/C=Nc3ccccc32)N(O)c2ccccc21"
Solution: 38.9

Problem: Query: growth; subject: CN(C)CC1C(=O)O[C@H]2[C@H]1CC/C(COC(=O)c1cc3ccccc3[nH]1)=C\CC[C@@]1(C)O[C@@H]21 (some centres undefined)
Solution: -15.7

Data credit: PubChem BioAssay (NCI)
